Reference source: patent US9605005B2

What Ki was measured for each of the following?
TARGET: nuclear factor-kappa B (NF-kB)-inducing kinase (NIK) (Homo sapiens (Human), UniProt Q99558)
Sequence (Q99558 whole entry): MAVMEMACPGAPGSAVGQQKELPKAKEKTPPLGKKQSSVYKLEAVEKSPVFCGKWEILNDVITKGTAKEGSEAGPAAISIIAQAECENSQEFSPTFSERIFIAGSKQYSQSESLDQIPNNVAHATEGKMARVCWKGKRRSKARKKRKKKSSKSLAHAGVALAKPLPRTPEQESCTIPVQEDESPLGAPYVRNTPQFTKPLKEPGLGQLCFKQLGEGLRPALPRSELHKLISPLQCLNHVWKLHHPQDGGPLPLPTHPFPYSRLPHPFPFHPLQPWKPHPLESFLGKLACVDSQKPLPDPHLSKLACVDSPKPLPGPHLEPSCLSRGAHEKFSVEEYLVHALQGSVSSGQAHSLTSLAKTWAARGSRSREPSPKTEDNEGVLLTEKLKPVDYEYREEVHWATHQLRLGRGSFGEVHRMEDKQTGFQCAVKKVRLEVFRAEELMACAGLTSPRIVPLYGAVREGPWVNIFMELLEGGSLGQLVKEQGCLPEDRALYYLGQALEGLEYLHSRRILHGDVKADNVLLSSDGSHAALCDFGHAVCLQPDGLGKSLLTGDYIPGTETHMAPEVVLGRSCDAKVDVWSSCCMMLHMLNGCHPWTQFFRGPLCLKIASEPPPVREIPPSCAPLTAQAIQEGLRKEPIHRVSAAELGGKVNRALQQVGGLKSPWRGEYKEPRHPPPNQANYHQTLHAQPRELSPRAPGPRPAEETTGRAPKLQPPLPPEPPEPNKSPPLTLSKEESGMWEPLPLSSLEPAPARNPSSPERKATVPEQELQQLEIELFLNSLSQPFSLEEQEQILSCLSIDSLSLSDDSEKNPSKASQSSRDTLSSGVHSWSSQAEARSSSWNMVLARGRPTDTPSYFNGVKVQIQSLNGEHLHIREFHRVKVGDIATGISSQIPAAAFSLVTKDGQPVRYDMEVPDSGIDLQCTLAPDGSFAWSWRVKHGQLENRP
MEASUREMENT PROTOCOL: NIK enzyme inhibition assay (Transcreener ADP, NIK ADP-FP)
Format: biochemical
DETAILS: purified NIK 0.5 nM, 10 μM ATP, fluorescence polarization; read-out: NIK ADP-FP (Ki μM)
Answers are plain numbers, in nM.

// below: answered compounds
| SMILES TEXT | Ki, nM |
| --- | --- |
| CN1CC[C@@](O)(C#Cc2cccc(-n3nc(C(N)=O)c4c3CCN(C(=O)OC(C)(C)C)C4)c2)C1=O | 0.9 |
| C[C@H]1Cc2c(C(N)=O)nn(-c3cccc(C#C[C@]4(O)CCN(C)C4=O)c3)c2C1 | 0.1 |
| Cc1cc(C(N)=O)nn1-c1cc(C#C[C@]2(O)CCN(C)C2=O)ccn1 | 10.8 |
| CN1CC[C@@](O)(C#Cc2cccc(-n3nc(C(N)=O)c4c3CCN([S@@+](C)[O-])C4)c2)C1=O | 18 |
| CN1CC[C@@](O)(C#Cc2cccc(-c3nc(C(N)=O)n4cc(Cl)ccc34)c2)C1=O | 0.06 |

Please state, for each entry, its recorded Ki.
1. CN1CC[C@@](O)(C#Cc2cccc(-n3nc(C(N)=O)c4cnc(N5CC[C@@H](O)C5)cc43)c2)C1=O
2. CN1CC[C@@](O)(C#Cc2cccc(-n3nc(C(N)=O)c4cc(-c5cnn(C)c5)cnc43)c2)C1=O
3. Cc1nnc([C@](C)(O)C#Cc2cccc(-c3nc(C(N)=O)n4ccc(Cl)cc34)c2)o1
4. CN1CC[C@@](O)(C#Cc2ccnc(-n3nc(C(N)=O)c4c3CCC(C)(C)C4)c2)C1=O
5. COc1ccc2c(c1)c(C(N)=O)nn2-c1cccc(C#C[C@]2(O)CCN(C)C2=O)c1
6. CN1CC[C@@](O)(C#Cc2cccc(-n3nc(C(N)=O)c4cc(-c5cnn(CCO)c5)ccc43)c2)C1=O
7. CN(Cc1ccc2c(c1)c(C(N)=O)nn2-c1cc(C#C[C@]2(O)CCN(C)C2=O)ccn1)C(=O)CCCN

Out:
1: 0.19; 2: 0.1; 3: 1.12; 4: 3.06; 5: 0.05; 6: 0.07; 7: 3.27

Please state, for each entry, its recorded Ki.
1. CN1CC[C@@](O)(C#Cc2cccc(-n3nc(C(N)=O)c4c3CCC(=O)N4)c2)C1=O
2. CN1CC[C@@](O)(C#Cc2cccc(-n3nc(C(N)=O)c4cc(C#N)ccc43)c2)C1=O

Out:
0.35
0.64

----------
Test system: REL-A (p65) nuclear translocation, HeLa cells
MEASUREMENT PROTOCOL: REL-A (p65) nuclear translocation assay in HeLa cells (classical NF-kB signaling, TNF-α stimulated)
Type: cell-based
DETAILS: Homo sapiens, 0.5 h; HeLa cells, 10 ng/mL TNF-α for 30 minutes; read-out: REL-A HeLa Transloc Assay (IC50)
EXPERIMENTAL READOUT: pIC50
Answers are plain numbers, as −log10 of the molar value.

// below: answered molecules
| MOLECULE | RESULT NUMBER |
| --- | --- |
| C[C@@](O)(C#Cc1cccc(-n2nc(C(N)=O)c3ccccc32)c1)c1c[nH]nn1 [Compound 117] | 4.70 |
| CN1CC[C@@](O)(C#Cc2cccc(-c3nn(C(N)=O)c4ccccc34)c2)C1=O [Compound 147] | 4.70 |
| CN1CC[C@@](O)(C#Cc2cccc(-c3nc(C(N)=O)n4ccc(C(F)(F)F)cc34)c2)C1=O [Compound 91] | 4.70 |
| COc1cc2c(C(N)=O)nn(-c3cccc(C#C[C@]4(O)CCN(C)C4=O)c3)c2cn1 [Compound 150] | 4.70 |
| CN1CC[C@@](O)(C#Cc2cc(-n3nc(C(N)=O)c4cccnc43)cc(C(F)(F)F)c2)C1=O [Compound 36] | 4.70 |
| CN1CC[C@@](O)(C#Cc2cccc(-n3nc(C(N)=O)c4c(Cl)cccc43)c2)C1=O [Compound 39] | 4.70 |
| CN1CC[C@@](O)(C#Cc2cccc(-n3nc(C(N)=O)c4cnc(C(F)(F)F)nc43)c2)C1=O [Compound 159] | 5.70 |
| CN1CC[C@@](O)(C#Cc2cccc(-n3nc(C(N)=O)c4ccnnc43)c2)C1=O [Compound 174] | 5.70 |

Please state, for each entry, its recorded pIC50.
1. CN1CC[C@@](O)(C#Cc2cccc(-n3nc(C(N)=O)c4ncccc43)c2)C1=O [Compound 164]
2. CN1CC[C@@](O)(C#Cc2cccc(-n3nc(C(N)=O)c4c3CCC[C@H]4O)c2)C1=O [Compound 2]
3. CN1CC[C@@](O)(C#Cc2cccc(-n3nc(C(N)=O)c4c3COC4)c2)C1=O [Compound 146]
4. CN1CC[C@@](O)(C#Cc2cccc(-n3nc(C(N)=O)c4cncnc43)c2)C1=O [Compound 114]
5. COc1ccc2c(C(N)=O)nn(-c3cccc(C#C[C@]4(O)CCN(C)C4=O)c3)c2n1 [Compound 154]

Out:
4.70
4.70
4.70
4.70
5.70

Please state, for each entry, its recorded pIC50.
1. CN1CC[C@@](O)(C#Cc2cccc(-n3nc(C(N)=O)c4cnc(C5CC5)nc43)c2)C1=O [Compound 158]
2. CN1CC[C@@](O)(C#Cc2cccc(-n3nc(C(N)=O)c4c3[C@H](O)CC4)c2)C1=O [Compound 169]

Out:
5.70
4.70
